# PBM binding z-score per entry
system: PXR homodimer (NR concentration 270 nM); experiment: PBM binding z-score (relative to random genomic background probes); higher = stronger binding; sequences stand for … in GC…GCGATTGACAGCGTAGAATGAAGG

BIOSEQUENCE | STUDY_SYSTEM | PBM binding z-score
GCTAGCAGGCCATTTGGGTCACTGAATGACGGGC | PXR homodimer (NR concentration 270 nM) | -0.19
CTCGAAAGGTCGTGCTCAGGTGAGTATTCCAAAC | PXR homodimer (NR concentration 270 nM) | 0.16
TCGAGTAGGTTAGGGGCATACAGAATGGCGTCGA | PXR homodimer (NR concentration 270 nM) | 0.171
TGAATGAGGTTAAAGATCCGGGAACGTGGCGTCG | PXR homodimer (NR concentration 270 nM) | -0.152
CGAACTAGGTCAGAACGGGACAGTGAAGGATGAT | PXR homodimer (NR concentration 270 nM) | -0.225
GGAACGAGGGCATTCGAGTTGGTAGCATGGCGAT | PXR homodimer (NR concentration 270 nM) | 0.354
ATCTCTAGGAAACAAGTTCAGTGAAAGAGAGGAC | PXR homodimer (NR concentration 270 nM) | 1.82
CCTCGGAGGACAACAGTAGGTCAGAGCTGCCAGA | PXR homodimer (NR concentration 270 nM) | -0.203
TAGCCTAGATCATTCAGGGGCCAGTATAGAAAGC | PXR homodimer (NR concentration 270 nM) | -0.234
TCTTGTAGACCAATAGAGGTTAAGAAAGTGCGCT | PXR homodimer (NR concentration 270 nM) | 0.469
CCGACTGGGGCATAAGGTTCCCATAAGCCAGCCC | PXR homodimer (NR concentration 270 nM) | -0.205
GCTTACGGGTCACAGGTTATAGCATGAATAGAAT | PXR homodimer (NR concentration 270 nM) | -0.0291
CAAACTAGGTCAGGAAAGGTCAAAGTCGAATGAC | PXR homodimer (NR concentration 270 nM) | 2.16
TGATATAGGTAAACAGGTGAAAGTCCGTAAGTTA | PXR homodimer (NR concentration 270 nM) | 0.346
AGAATGAGGTTACCAAAGATCAGGAAAACGCTTG | PXR homodimer (NR concentration 270 nM) | -0.0296
AGTCAAAGTTCAGGACGAGGTAACGTAAAGCACG | PXR homodimer (NR concentration 270 nM) | 0.827
CCTTACCGGTCACTGACAGGTTATAGCATTTGGA | PXR homodimer (NR concentration 270 nM) | 0.467
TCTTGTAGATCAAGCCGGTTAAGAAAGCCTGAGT | PXR homodimer (NR concentration 270 nM) | 0.0295
GCGAATGGGGCAAAGCAGGTTACCATAAGGTTGG | PXR homodimer (NR concentration 270 nM) | -0.414
CGTCCAAGGTCGTAGGAGGTCAGTGAAGACAGAT | PXR homodimer (NR concentration 270 nM) | 1.8
GCTGCTAGGTTAGGTTGGTCAGCTAACGGGTACG | PXR homodimer (NR concentration 270 nM) | -0.359
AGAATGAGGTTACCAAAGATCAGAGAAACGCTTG | PXR homodimer (NR concentration 270 nM) | 0.161
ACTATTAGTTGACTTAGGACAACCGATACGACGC | PXR homodimer (NR concentration 270 nM) | 0.511
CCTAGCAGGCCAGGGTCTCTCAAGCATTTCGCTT | PXR homodimer (NR concentration 270 nM) | -0.933
CGAACAAGGGCATGAGTTGATAGCAAATGCCGAT | PXR homodimer (NR concentration 270 nM) | -0.184
CCAGACAGGTGAAAGGTACCTCAGTCTGGTACGC | PXR homodimer (NR concentration 270 nM) | -0.251

Data origin, for the record: the supplement of paper PMC6555819
